# Test system: SF-539 CNS
# protocol: NCI tumour cell line growth inhibition, 48 h

compound	TGI
C=CCN(CC=C)C(=O)c1cc(C)nc2c1c(=O)n(-c1ccccc1)c(=O)n2CC(O)CN1CCN(c2ncccn2)CC1 (stereo not drawn)	> 100 µM
C=C[C@H]1CCC/C=C/[C@@H]2C[C@H](O)C[C@H]2[C@H](O)/C=C/C(=O)O1	> 100 µM
COc1ccc2c(c1)CCc1[nH]c3ccccc3c1CCCC2	> 10 µM

* * *

List of TGI values.
# Tested on: SN12C renal
# protocol: NCI tumour cell line growth inhibition, 48 h
Peptide text beside a SMILES is read from it. * marks the point of attachment. Boc = CC(C)(C)OC(=O)*; OBn = c1ccc(CO*)cc1

compound	TGI
CC(NC(=O)CNC(=O)OC(C)(C)C)C(=O)NC(Cc1ccccc1)C(=O)OCc1ccccc1 (stereo not drawn) (Boc-Gly-Ala-Phe-OBn; configuration not given here)	> 100 µM
Cc1nc2cc(N)c(F)cc2[nH]1	> 100 µM
NC(CCP(=O)(O)CCC1C=CC=CC1)C(=O)O (stereo not drawn)	> 100 µM

* * *

# Tested on: HS 578T breast
# protocol: NCI tumour cell line growth inhibition, 48 h
Peptide text beside a SMILES is read from it. * marks the point of attachment. Boc = CC(C)(C)OC(=O)*; OBn = c1ccc(CO*)cc1
measurement_label: TGI

molecule	measurement_label	result
CCOP(=O)(OCC)c1ccc(=O)[nH]c1-c1cccs1	TGI	> 100 µM
COc1ccc(-c2ccc(/C=N/n3c(COc4ccc(Cl)cc4Cl)nn(CN4CCN(C)CC4)c3=S)o2)c([N+](=O)[O-])c1	TGI	> 100 µM
COC(=O)c1ccccc1/C=C1\Cc2cc(C)cc(C)c2C1=O	TGI	> 100 µM
C=CCC(C(=O)O)c1ccccc1 (centres undefined)	TGI	> 100 µM
CCOC(=O)[C@@H]1ON2O[C@H](OC3CCCC3(c3ccccc3)c3ccccc3)C[C@H]3OC(=O)[C@@H]1C32 (some centres undefined)	TGI	> 100 µM
O=CN1N=C(c2ccc(Cl)cc2)CC1c1cccc(Nc2ccnc3cc(Cl)ccc23)c1 (centres undefined)	TGI	> 100 µM
CC(NC(=O)CNC(=O)OC(C)(C)C)C(=O)NC(Cc1ccccc1)C(=O)OCc1ccccc1 (stereo not drawn) (Boc-Gly-Ala-Phe-OBn; configuration not given here)	TGI	> 100 µM
N#CC(Nc1ccccc1)c1ccc(C(C#N)Nc2ccccc2)cc1 (centres undefined)	TGI	> 100 µM
O=c1cc(CBr)c2ccc(O)cc2o1	TGI	> 100 µM
NC1=NN(c2ccccc2)C2(O)c3ccncc3C3=NN(c4ccccc4)C(=O)C132 (centres undefined)	TGI	> 100 µM
C=C(C)CN(CC#N)CC(=C)C	TGI	> 100 µM
CCOC(=O)c1c(-c2ccc(O)c(OC)c2)c(C#N)c(=S)n(C2OC(COC(C)=O)C(OC(C)=O)C(OC(C)=O)C2OC(C)=O)c1-c1ccccc1 (centres undefined)	TGI	> 100 µM
Cc1cccc(Cl)c1NC(=O)/C=C/c1ccccc1	TGI	> 100 µM
O=c1[nH]c(=S)[nH]n1C(=S)n1[nH]c(=S)[nH]c1=O	TGI	> 100 µM
COc1cc(Nc2cnc3cc(F)c(F)cc3n2)cc(OC)c1	TGI	> 100 µM
COc1ccc2cc(/C=N\NC(=O)Nc3cccc4ccccc34)ccc2c1	TGI	94.6 µM
O=C(CC12CC3CC(CC(C3)C1)C2)NCCOCCOCCOCCNC(=O)c1cc2c(o1)C(=O)c1ccccc1C2=O	TGI	6.59 µM
CCCCCCCCC/C=C1\CC(CO)(COC(=O)C2CCCCC2)OC1=O (centres undefined)	TGI	41 µM
COc1cc(NP(=O)(Oc2ccccc2)Oc2ccccc2)ccc1Nc1c2ccccc2nc2c1[nH]c1ccccc12	TGI	98.1 µM
O=C(Nc1cc[c]([Sb](=[O])([OH])[OH])cc1)c1ccccc1	TGI	> 100 µM
CC/C=C/C(=O)CC(O)(C(F)(F)F)C(F)(F)F	TGI	> 100 µM
CN(C)CCCCN1c2ccccc2Sc2cc(N=[N+]=[N-])ccc21	TGI	9.83 µM
O=C1c2ccccc2-c2ccc(N=Nc3c(O)ccc4ccccc34)cc21	TGI	> 100 µM
CC(=O)OC1COC(n2c(-c3ccc(Cl)cc3)cc(-c3ccccc3)c(C#N)c2=S)C(OC(C)=O)C1OC(C)=O (centres undefined)	TGI	24.6 µM
